Target: human c-mpl-Ba/F3 cells (Homo sapiens, UniProt P40238)
Construct: expressed in transfected cells; host or cells: Ba/F3 (murine pro-B cells) expressing human c-mpl
Sequence (P40238 26-635): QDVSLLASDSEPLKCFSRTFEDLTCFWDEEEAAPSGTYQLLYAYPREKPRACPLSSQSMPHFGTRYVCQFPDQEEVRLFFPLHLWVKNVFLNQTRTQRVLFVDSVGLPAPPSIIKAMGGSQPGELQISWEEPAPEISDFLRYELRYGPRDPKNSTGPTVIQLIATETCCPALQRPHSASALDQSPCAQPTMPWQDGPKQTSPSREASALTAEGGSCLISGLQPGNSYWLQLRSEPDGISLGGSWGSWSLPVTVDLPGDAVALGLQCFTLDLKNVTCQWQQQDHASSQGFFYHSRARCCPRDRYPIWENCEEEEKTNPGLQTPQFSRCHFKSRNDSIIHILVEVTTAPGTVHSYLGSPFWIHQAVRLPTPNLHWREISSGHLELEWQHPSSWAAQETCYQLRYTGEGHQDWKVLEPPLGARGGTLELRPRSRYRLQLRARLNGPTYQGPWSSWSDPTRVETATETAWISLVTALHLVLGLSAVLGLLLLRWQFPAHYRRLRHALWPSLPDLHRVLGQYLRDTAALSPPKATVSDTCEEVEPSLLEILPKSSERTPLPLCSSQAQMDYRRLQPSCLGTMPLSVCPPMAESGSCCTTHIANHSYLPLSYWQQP
Assay: Human c-mpl-Ba/F3 cell growth test
Assay type: cell-based
Details: concentration at which cell growth is accelerated by 30% of the maximum cell growth activity of compound A; 24 h culture
quantity-kind: Pot (nM)
Numbers only; they are read as nM.

[in] Param item = CN(Cc1sc(NC(=O)c2cnc(N3CCC(C(=O)O)CC3)c(Cl)c2)nc1-c1cc(Cl)cs1)C1CCC1 ; retrieve measured Pot.
[out] 2.9

[in] Param item = CN(Cc1sc(NC(=O)c2cnc(N3CCC(C(=O)O)CC3)c(Cl)c2)nc1-c1cc(Cl)cs1)C1CC1 ; retrieve measured Pot.
[out] 3.1

[in] Param item = CN(C)Cc1sc(NC(=O)c2cnc(N3CCC(C(=O)O)CC3)c(Cl)c2)nc1-c1cc(Cl)cs1 ; retrieve measured Pot.
[out] 4.3

[in] Param item = CCCCN(C)Cc1sc(NC(=O)c2cnc(NCCCO)c(Cl)c2)nc1-c1cc(Cl)cs1 ; retrieve measured Pot.
[out] 8.4

[in] Param item = CCCCN(C)Cc1sc(NC(=O)c2cnc(N3CCC(CO)CC3)c(Cl)c2)nc1-c1cc(Cl)cs1 ; retrieve measured Pot.
[out] 3.6

[in] Param item = CC(C)N(C)Cc1sc(NC(=O)c2cnc(N3CCC(C(=O)O)CC3)c(Cl)c2)nc1-c1cc(Cl)cs1 ; retrieve measured Pot.
[out] 3.5

[in] Param item = C[C@H]1CCCN1Cc1sc(NC(=O)c2cnc(N3CCC(C(=O)O)CC3)c(Cl)c2)nc1-c1cc(Cl)cs1 ; retrieve measured Pot.
[out] 2.1

[in] Param item = C[C@@H]1CCCN1Cc1sc(NC(=O)c2cnc(N3CC(CC(=O)O)C3)c(Cl)c2)nc1-c1cc(Cl)cs1 ; retrieve measured Pot.
[out] 4.4

[in] Param item = CO[C@@H](C)CN(C)Cc1sc(NC(=O)c2cnc(N3CCC(C(=O)O)CC3)c(Cl)c2)nc1-c1cc(Cl)cs1 ; retrieve measured Pot.
[out] 6.0

[in] Param item = Cc1sc(NC(=O)c2ccc(/C=C(\Cl)C(=O)O)cc2)nc1-c1cccc(C(F)(F)F)c1 [Comparative Compound 3, reference compound] ; retrieve measured Pot.
[out] 6.9

[in] Param item = CN(Cc1sc(NC(=O)c2cnc(N3CCC(C(=O)O)CC3)c(Cl)c2)nc1-c1cc(Cl)cs1)C1CCCCC1 ; retrieve measured Pot.
[out] 2.0

[in] Param item = C[C@@H]1CCCN1Cc1sc(NC(=O)c2cnc(N3CCC(C(=O)O)CC3)c(Cl)c2)nc1-c1cc(Cl)cs1 ; retrieve measured Pot.
[out] 1.5

[in] Param item = CC(C)N(C)Cc1sc(NC(=O)c2cnc(N(C)CCCC(=O)O)c(Cl)c2)nc1-c1cc(Cl)cs1 ; retrieve measured Pot.
[out] 3.2

[in] Param item = C[C@@H]1CCCN1Cc1sc(NC(=O)c2cnc(N3CCC(C(=O)O)CC3)c(F)c2)nc1-c1cc(Cl)cs1 ; retrieve measured Pot.
[out] 3.2
